target: Human TRPA1 (Homo sapiens, UniProt O75762); construct: expressed in transfected cells; host or cells: CHO cells; experiment: 45Calcium uptake assay: inhibition of AITC induced cellular uptake of radioactive calcium; format: cell-based; conditions: 1.0 μM test compound; AITC (30 μM) induced 45Ca uptake; Human TRPA1 expressing CHO cells; read-out: Percentage inhibition at 1.0 μM
Sequence (O75762 whole entry): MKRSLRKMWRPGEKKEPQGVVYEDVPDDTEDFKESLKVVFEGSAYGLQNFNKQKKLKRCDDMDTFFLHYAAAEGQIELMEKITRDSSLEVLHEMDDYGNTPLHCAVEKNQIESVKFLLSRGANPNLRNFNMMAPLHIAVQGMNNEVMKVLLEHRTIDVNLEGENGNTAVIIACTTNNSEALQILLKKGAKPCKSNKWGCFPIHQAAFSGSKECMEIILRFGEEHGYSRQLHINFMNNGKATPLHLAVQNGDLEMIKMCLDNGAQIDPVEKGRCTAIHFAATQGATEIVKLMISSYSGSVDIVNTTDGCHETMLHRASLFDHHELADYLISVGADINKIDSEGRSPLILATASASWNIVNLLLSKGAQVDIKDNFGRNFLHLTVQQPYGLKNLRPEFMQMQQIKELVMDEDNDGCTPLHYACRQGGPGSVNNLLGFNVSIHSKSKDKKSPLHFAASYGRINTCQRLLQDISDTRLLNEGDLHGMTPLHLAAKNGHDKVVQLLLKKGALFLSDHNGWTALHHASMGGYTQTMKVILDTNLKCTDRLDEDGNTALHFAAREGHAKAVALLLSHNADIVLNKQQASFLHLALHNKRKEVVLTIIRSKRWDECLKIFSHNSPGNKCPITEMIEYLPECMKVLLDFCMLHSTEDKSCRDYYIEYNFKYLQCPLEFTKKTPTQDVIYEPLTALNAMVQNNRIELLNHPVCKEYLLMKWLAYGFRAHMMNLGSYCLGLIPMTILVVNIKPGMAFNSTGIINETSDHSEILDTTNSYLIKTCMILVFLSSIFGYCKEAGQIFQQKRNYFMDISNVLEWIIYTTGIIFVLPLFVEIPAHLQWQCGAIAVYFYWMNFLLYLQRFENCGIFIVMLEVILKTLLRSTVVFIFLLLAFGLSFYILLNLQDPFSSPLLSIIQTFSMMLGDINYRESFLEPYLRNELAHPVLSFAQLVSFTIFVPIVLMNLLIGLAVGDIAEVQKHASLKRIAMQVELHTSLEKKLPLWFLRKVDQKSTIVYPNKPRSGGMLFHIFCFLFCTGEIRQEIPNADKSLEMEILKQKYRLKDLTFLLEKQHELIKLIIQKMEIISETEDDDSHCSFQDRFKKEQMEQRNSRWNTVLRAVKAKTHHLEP
readoutName: inhibition at 1 µM

smilesnotation=Cn1nc2c(c1CC(=O)Nc1nc(-c3cccc(C(F)(F)F)c3)cs1)c(=O)n(C)c(=O)n2C measuredresult=92.8%
smilesnotation=Cn1nc2c(c1CC(=O)Nc1nc(-c3cc(C(F)(F)F)ccc3F)cs1)c(=O)n(C)c(=O)n2C measuredresult=43%
smilesnotation=Cn1c(=O)c2c(cnn2CC(=O)Nc2nc(-c3cc(F)c(OCC4CCC4)c(F)c3)cs2)n(C)c1=O measuredresult=94%
smilesnotation=Cn1nc2c(c1CC(=O)Nc1nc(-c3ccc(OC(F)F)c(F)c3)cs1)c(=O)n(C)c(=O)n2C measuredresult=86%
smilesnotation=Cn1c(=O)c2c(ccn2CC(=O)Nc2nc(-c3cc(F)c(OCc4ccc(C(F)(F)F)cc4)c(F)c3)cs2)n(C)c1=O measuredresult=11.2%
smilesnotation=Cn1c(=O)c2c(ccn2CC(=O)Nc2nc(-c3cc(Cl)c(OCC(C)(C)C)c(Cl)c3)cs2)n(C)c1=O measuredresult=86.5%

====

target: Human TRPA1 (Homo sapiens); construct: expressed in transfected cells; host or cells: CHO cells; assay: 45Calcium uptake assay: inhibition of AITC induced cellular uptake of radioactive calcium; format: cell-based; details: 10.0 μM test compound; AITC (30 μM) induced 45Ca uptake; Human TRPA1 expressing CHO cells; read-out: Percentage inhibition at 10.0 μM
readoutName: inhibition at 10 µM (%)

smilesnotation=Cn1nc2c(c1CC(=O)Nc1nc(-c3ccc(OC(F)(F)F)c(F)c3)cs1)c(=O)n(C)c(=O)n2C readoutname="inhibition at 10 µM" measuredresult=99.3
smilesnotation=Cn1c(=O)c2c(ccn2CC(=O)Nc2nc(-c3ccc(Cl)c(C(F)(F)F)c3)cs2)n(C)c1=O readoutname="inhibition at 10 µM" measuredresult=89.8
smilesnotation=Cn1nc2c(c1CC(=O)Nc1nc(-c3ccc(C(F)(F)F)c(F)c3F)cs1)c(=O)n(C)c(=O)n2C readoutname="inhibition at 10 µM" measuredresult=95.8
smilesnotation=Cn1c(=O)c2c(ccn2CC(=O)Nc2nc(-c3cc(F)c(OCC(F)(F)F)c(Cl)c3)cs2)n(C)c1=O readoutname="inhibition at 10 µM" measuredresult=97.1

====

target: Human TRPA1 (Homo sapiens); construct: expressed in transfected cells; host or cells: CHO cells; assay: 45Calcium uptake assay: inhibition of AITC induced cellular uptake of radioactive calcium; format: cell-based; conditions: AITC (30 μM) induced 45Ca uptake; Human TRPA1 expressing CHO cells; read-out: Human IC50 value (range)
readoutName: IC50

molecule="Cn1nc2c(c1CC(=O)Nc1nc(-c3ccc(F)c(C(F)(F)F)c3F)cs1)c(=O)n(C)c(=O)n2C [Example 63]" readoutname=IC50 measuredresult="< 50 nM"
molecule="Cc1cc2c(c(=O)n(C)c(=O)n2C)n1CC(=O)Nc1nc(-c2cc(F)c(OCC(F)(F)F)c(F)c2)cs1 [Example 26]" readoutname=IC50 measuredresult="< 50 nM"
molecule="Cn1c(=O)c2c(ccn2CC(=O)Nc2nc(-c3cc(F)c(OC(F)F)c(F)c3)cs2)n(C)c1=O [Example 10]" readoutname=IC50 measuredresult="50 to 100 nM"
molecule="CC(C)Cc1ccc(-c2csc(NC(=O)Cc3c4c(=O)n(C)c(=O)n(C)c4nn3C)n2)cc1 [Example 45]" readoutname=IC50 measuredresult="50 to 100 nM"
molecule="Cc1cn(CC(=O)Nc2nc(-c3cc(F)c(OCC(C)(C)C)c(F)c3)cs2)c2c(=O)n(C)c(=O)n(C)c12 [Example 34]" readoutname=IC50 measuredresult="> 100 nM"
molecule="Cn1nc2c(c1CC(=O)Nc1nc(-c3ccc(OC(F)F)c(F)c3)cs1)c(=O)n(C)c(=O)n2C [Example 61]" readoutname=IC50 measuredresult="50 to 100 nM"
molecule="CC(C)COc1c(Cl)cc(-c2csc(NC(=O)Cn3ncc4c3c(=O)n(C)c(=O)n4C)n2)cc1Cl [Example 75]" readoutname=IC50 measuredresult="< 50 nM"
molecule="Cn1c(=O)c2c(cnn2CC(=O)Nc2nc(-c3cc(F)c(OCC(C)(C)C)c(F)c3)cs2)n(C)c1=O [Example 78]" readoutname=IC50 measuredresult="< 50 nM"
molecule="Cn1c(=O)c2c(cnn2CC(=O)Nc2nc(-c3cc(F)c(OC(F)F)c(F)c3)cs2)n(C)c1=O [Example 72]" readoutname=IC50 measuredresult="> 100 nM"
molecule="Cn1c(=O)c2c(ccn2CC(=O)Nc2nc(-c3cc(Cl)c(OCCC(F)(F)C(F)(F)F)c(Cl)c3)cs2)n(C)c1=O [Example 15]" readoutname=IC50 measuredresult="50 to 100 nM"
molecule="Cn1c(=O)c2c(ccn2CC(=O)Nc2nc(-c3cc(Cl)c(OCC(C)(C)C)c(Cl)c3)cs2)n(C)c1=O [Example 13]" readoutname=IC50 measuredresult="50 to 100 nM"
molecule="Cn1nc2c(c1CC(=O)Nc1nc(-c3ccc(F)c(C(F)(F)F)c3)cs1)c(=O)n(C)c(=O)n2C [Example 53]" readoutname=IC50 measuredresult="< 50 nM"
molecule="Cc1nn(CC(=O)Nc2nc(-c3cc(Cl)c(OCC(C)(C)C)c(Cl)c3)cs2)c2c(=O)n(C)c(=O)n(C)c12 [Example 83]" readoutname=IC50 measuredresult="< 50 nM"
molecule="Cn1c(=O)c2c(cnn2CC(=O)Nc2nc(-c3ccc(OCC(C)(C)C)c(F)c3)cs2)n(C)c1=O [Example 69]" readoutname=IC50 measuredresult="< 50 nM"
